The origin of these recorded values is patent US20240059799A1.

Target: T1, recombinant human TL1A (human, UniProt O95150 71-251)
T1 construct: homotrimer; biotinylated for SPR capture; the ELISA paragraphs say only 'recombinant TL1A'; also called TNFSF15
T1 chain: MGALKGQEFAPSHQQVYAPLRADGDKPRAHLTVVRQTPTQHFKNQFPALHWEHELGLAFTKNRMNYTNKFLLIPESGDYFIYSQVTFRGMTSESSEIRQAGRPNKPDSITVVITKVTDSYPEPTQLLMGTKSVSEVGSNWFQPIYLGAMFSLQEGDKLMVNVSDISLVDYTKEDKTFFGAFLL
Experiment: competition ELISA vs bio-TL1A-0002
MEASUREMENT TYPE: pIC50
Convention used: pIC50 is expressed as -log10 of the molar concentration.

Illustrative cases are given below, each with its answer.
TL1A-0074 (antibody, IgG1, V domains shown, IgG1/kappa variant of TL1A-0002) VH: QVQLVQSGAEVKKPGASVKVSCKASGYDFTYYGISWVRQAPGQGLEWMGWISTYNTNTHYAPSLQGRVTMTTDTSTRTAYMELRSLRSDDTAVYYCARENYYGSGAYRGGMDVWGQGTTVTVSS VL: EIVLTQSPATLSLSPGERATLSCRASQSVSSYLAWYQQKPGQAPRLLIYDASNRATGIPARFSGSGSGTDFTLTISSLEPEDFAVYYCQQRSNWPWTFGQGTKVEIKR = 8.35
TL1A-0098 (antibody, IgG1, V domains shown, IgG1/kappa variant of TL1A-0002) VH: QVQLVQSGAEVKKPGASVKVSCKASGYDFTYYGISWVRQAPGQGLEWMGWISTYNGNTHYARMLQGRVTMTTDTSTRTAYMELRSLRSDDTAVYYCAREEYYGSGAYRGGMDVWGQGTTVTVSS VL: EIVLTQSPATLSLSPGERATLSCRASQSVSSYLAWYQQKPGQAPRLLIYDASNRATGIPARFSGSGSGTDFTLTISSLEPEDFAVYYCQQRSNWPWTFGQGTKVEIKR = 8.18
TL1A-0024 (antibody, IgG1, V domains shown, IgG1/kappa variant of TL1A-0002) VH: QVQLVQSGAEVKKPGASVKVSCKASGYDFTYYGISWVRQAPGQGLEWMGWISTYNGNEHYAPSLQGRVTMTTDTSTRTAYMELRSLRSDDTAVYYCARENYYGSGAYRGGMDVWGQGTTVTVSS VL: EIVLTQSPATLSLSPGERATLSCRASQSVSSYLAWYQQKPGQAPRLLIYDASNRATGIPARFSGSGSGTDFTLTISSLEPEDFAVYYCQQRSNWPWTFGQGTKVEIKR = 8.27
TL1A-0019 (antibody, IgG1, V domains shown, IgG1/kappa variant of TL1A-0002) VH: QVQLVQSGAEVKKPGASVKVSCKASGYDFTYYGISWVRQAPGQGLEWMGWISTYNGNTHHARMLQGRVTMTTDTSTRTAYMELRSLRSDDTAVYYCARENYYGSGAYRGGMDVWGQGTTVTVSS VL: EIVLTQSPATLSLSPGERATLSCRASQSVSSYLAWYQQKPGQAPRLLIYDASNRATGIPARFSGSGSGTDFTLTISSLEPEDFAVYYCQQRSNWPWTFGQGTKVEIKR = 8.30

Data request, read-out pIC50, for TL1A-0081 (antibody, IgG1, V domains shown, IgG1/kappa variant of TL1A-0002) VH: QVQLVQSGAEVKKPGASVKVSCKASGYDFTYYGISWVRQAPGQGLEWMGWISAYNGNTHYARMLQGRVTMTTDTSTRTAYMELRSLRSDDTAVYYCARENYYGSGAYRGGMDVWGQGTTVTVSS VL: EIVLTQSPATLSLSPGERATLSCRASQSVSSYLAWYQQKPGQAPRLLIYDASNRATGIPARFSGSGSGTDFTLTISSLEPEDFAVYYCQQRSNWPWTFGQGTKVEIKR
8.39
